Reference source for all entries: patent US20240092922A1

Molecular target: T1, Histidine-tagged human 4-1BB protein (h4-1BB-His) (human, UniProt Q07011 24-186)
T1 construct: not shown: histidine tag
Experiment: SPR (Biacore T200), antibody on Protein A chip, h4-1BB-His injected;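 further: dissociation phase followed for 300 s, Kd derived as koff divided by kon from the kinetic fit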
Listing of recorded Kd by entry.
measurementType: Kd (nM)

binder	measurementType	reportedResult
6A5-H1K1-IgG2 (antibody, V domains shown, humanized) VH: QVQLVQSGAEVKKPGSSVKLSCKASGYTFSSYWINWVRQAPGQGLEWMGNIYPSDSYTNYNQKFKDRVTLTVDKSTSTAYMELSSLRSEDTAVYYCTRTWEFYYDSVFDYWGQGTLVTVSS VL: DIQMTQSPSSLSASLGERVTITCKASQDINSYLSWYQQKPGKAPKLLIYRANRLVDGVPSRFSGSGSGQDFTLTISSLQPEDIATYYCLQYDELPPTFGGGTKVEIK	Kd	1.17
45-7G9-mHvKv-IgG2 (antibody, V domains shown) VH: QVQLQQPGSALVRPGASVKLSCKASGYTFSNYWIHWVKQRHGQGLEWIGNIYPASDYTNYDEKFKNKGTLTVDTSSSTAYMHLSSLTSEDSAVYYCSRGYFGSLDYWGQGTSVTVSA VL: DILLTQSPAILSVNPGERVSFSCRASQPIGTGIHWYQQRTNGSPRLLIKSASESISGIPSRFSGSGSGTDFTLTINNVESDDVGDYYCQQSYSWPTTFGGGTKLKIN	Kd	23.1
1C4-H3K4-IgG4 (antibody, V domains shown, humanized) VH: QVQMVQSGAEVKKPGASVKLSCKASGFTFSSSYINWLRQAPGQSLEWIGWIFAGTGGTYYNQKFTGRAQITRDTSASTAYMELSSLRSEDTAIYYCARHSPRATLFDFWGQGTTLTVSS VL: EIVLTQSPATLSASPGERVTMSCRASSSVNHMHWYQQRPGFSPRAWIYATSNLASGIPARFSGSGSGTSYSLTISSLEPEDFATYYCQQWSSNPYTFGGGTKLEIK	Kd	15.9
1C4-H3K3-IgG4 (antibody, V domains shown, humanized) VH: QVQMVQSGAEVKKPGASVKLSCKASGFTFSSSYINWLRQAPGQSLEWIGWIFAGTGGTYYNQKFTGRAQITRDTSASTAYMELSSLRSEDTAIYYCARHSPRATLFDFWGQGTTLTVSS VL: EIVLTQSPATLSLSPGERATMSCRASSSVNHMHWYQQKPGFSPRAWIYATSNLASGIPARFSGSGSGTSFTLTISSLEPEDFATYYCQQWSSNPYTFGGGTKLEIK	Kd	17.1
6A5-H2K4-IgG2 (antibody, V domains shown, humanized) VH: QVQLVQSGAEVKKPGSSVKLSCKASGYTFSSYWINWVRQAPGQGLEWIGNIYPSDSYTNYNQKFKDRATLTVDKSTSTAYMELSSLRSEDTAVYYCTRTWEFYYDSVFDYWGQGTLVTVSS VL: DIQMTQSPSSLSASLGERVTITCKASQDINSYLSWFQQKPGKAPKTLIYRANRLVDGVPSRFSGSGSGQDYTLTISSLQPEDIATYYCLQYDELPPTFGGGTKLEIK	Kd	0.26
